# TEST: Pharmacokinetics in monkeys on Day 1 and Day 27
# MEASUREMENT_PARAMETERS: female, monkey, in vivo, 0.15 mg/kg, Day 27, 0.15 mg/kg, female
RESULT_TYPE: Tmax

(Q) Fill in reported Tmax for this entry: Cc1nc2cccc(N)c2c(=O)n1C1CCC(=O)NC1=O (stereo not shown)
(A) 2 to 4 h

====

# TEST: Pharmacokinetics in monkeys on Day 1 and Day 27
# MEASUREMENT_PARAMETERS: male, monkey, in vivo, 15 mg/kg, Day 27, 15 mg/kg, male
RESULT_TYPE: Cmax
State the value with its unit after it.

(Q) Fill in reported Cmax for this entry: Cc1nc2cccc(N)c2c(=O)n1C1CCC(=O)NC1=O (stereo not shown)
(A) 5800 ng/mL
